Exercise: for every item that follows, state its recorded protein stability index.
B1: PBXIP1 (parent)
chain: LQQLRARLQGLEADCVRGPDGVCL

variants of: B1; assay: protein stability index of a GFP-peptide fusion (GPS, HEK-293T) (PSI 1-6); higher = more stable; conditions: c terminus: a fixed tail appended;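 also: lentivirally expressed fusions sorted by FACS into six bins by GFP to DsRed ratio, PSI derived from sequencing read proportions per bin multiplied by bin number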
The response must contain the number and no unit.

Input D14Y . Output protein stability index: 1.14

Input Q3K . Output protein stability index: 1.97

Input A13M . Output protein stability index: 2.79

Input R17N . Output protein stability index: 3.03
